- Test system: RERF-GC-1B (Gastric Carcinoma)
- measurement.protocol: combination Emax (second highest fraction inhibited in the dose matrix, 72 h); higher = more inhibition; extreme values may be limits of the assay
readout.label: combination Emax
Output spec: single numeric token, no unit.

Query: Recorded combination Emax for C[C@@H]1COCCN1c1cc(C2([S@](C)(=N)=O)CC2)nc(-c2ccnc3[nH]ccc23)n1 [AZD6738] + O=C(c1cc(Cc2n[nH]c(=O)c3ccccc23)ccc1F)N1CCN(C(=O)C2CC2)CC1 [Olaparib] (first compound max 10 µM, 7x7, partner max 10 µM) , please?
Result: 0.442

Query: Recorded combination Emax for CC1(C)CCC(CN2CCN(c3ccc(C(=O)NS(=O)(=O)c4ccc(NCC5CCOCC5)c([N+](=O)[O-])c4)c(Oc4cnc5[nH]ccc5c4)c3)CC2)=C(c2ccc(Cl)cc2)C1 [Venetoclax] + C1CN(CCC1(C(=O)N[C@@H](CCO)C2=CC=C(C=C2)Cl)N)C3=NC=NC4=C3C=CN4 [Capivasertib] (first compound max 1 µM, 7x7, partner max 3 µM) , please?
Result: 0.335

Query: Recorded combination Emax for Cn1cnc2c(F)c(Nc3ccc(Br)cc3Cl)c(C(=O)NOCCO)cc21 [Selumetinib] + C=CCn1c(=O)c2cnc(Nc3ccc(N4CCN(C)CC4)cc3)nc2n1-c1cccc(C(C)(C)O)n1 [AZD1775] (first compound max 10 µM, partner max 1 µM) , please?
Result: 0.788
